- Tested target: recombinant mTOR (FLAG-tagged, residues 1362-2549) (Homo sapiens, UniProt P42345)
- Sequence (P42345 1362-2549): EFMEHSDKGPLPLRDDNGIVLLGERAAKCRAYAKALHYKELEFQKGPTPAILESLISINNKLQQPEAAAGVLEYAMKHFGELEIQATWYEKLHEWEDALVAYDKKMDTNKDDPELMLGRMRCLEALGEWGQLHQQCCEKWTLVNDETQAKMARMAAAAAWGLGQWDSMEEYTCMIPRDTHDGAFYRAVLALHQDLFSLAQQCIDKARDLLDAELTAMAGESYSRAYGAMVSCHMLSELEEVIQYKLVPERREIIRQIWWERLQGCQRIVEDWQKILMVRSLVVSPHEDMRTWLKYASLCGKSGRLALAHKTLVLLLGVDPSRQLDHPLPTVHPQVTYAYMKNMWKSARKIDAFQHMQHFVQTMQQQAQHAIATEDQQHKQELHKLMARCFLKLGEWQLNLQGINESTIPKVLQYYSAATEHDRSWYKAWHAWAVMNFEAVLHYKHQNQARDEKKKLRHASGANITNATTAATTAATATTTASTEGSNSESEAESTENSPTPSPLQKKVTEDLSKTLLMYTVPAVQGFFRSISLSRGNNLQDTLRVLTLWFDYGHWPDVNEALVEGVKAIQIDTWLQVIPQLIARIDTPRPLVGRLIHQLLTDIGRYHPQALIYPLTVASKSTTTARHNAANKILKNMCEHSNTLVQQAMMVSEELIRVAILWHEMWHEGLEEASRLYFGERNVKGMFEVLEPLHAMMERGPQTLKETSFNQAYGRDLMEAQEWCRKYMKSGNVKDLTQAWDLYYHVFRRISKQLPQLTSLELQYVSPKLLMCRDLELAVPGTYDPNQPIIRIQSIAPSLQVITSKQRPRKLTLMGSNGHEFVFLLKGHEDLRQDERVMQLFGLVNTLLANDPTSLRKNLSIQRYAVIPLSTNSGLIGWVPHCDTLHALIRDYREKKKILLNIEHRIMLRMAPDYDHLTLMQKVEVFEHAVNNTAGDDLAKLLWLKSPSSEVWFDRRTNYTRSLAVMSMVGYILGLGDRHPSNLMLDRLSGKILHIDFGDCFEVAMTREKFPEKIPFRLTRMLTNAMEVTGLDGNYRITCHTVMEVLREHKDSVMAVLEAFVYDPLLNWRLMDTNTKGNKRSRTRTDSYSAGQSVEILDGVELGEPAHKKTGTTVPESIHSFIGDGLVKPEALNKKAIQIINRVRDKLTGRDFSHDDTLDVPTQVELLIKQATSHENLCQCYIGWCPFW
- Protocol: In vitro mTOR kinase assay (Test (a), AlphaScreen)
- Setup conditions: ATP 20 μM, read-out: Test (a): IC50 versus mTOR kinase
Threshold 700 nM: IC50 strictly smaller gives criterion met, otherwise criterion not met.

CCNC(=O)Nc1ncc(-c2nc(N3CCOC[C@@H]3C)cc(C(C)(C)S(C)(=O)=O)n2)s1 [Example 47d]
criterion not met
CC(C)S(=O)(=O)Cc1cc(N2CCOC[C@@H]2C)nc(-c2ccc(NC(=O)NC3CC3)cc2)n1 [Example 20r]
criterion met
CNC(=O)Nc1ccc(-c2nc(CS(=O)(=O)c3ccccc3C)cc(N3CCOC[C@@H]3C)n2)cc1 [Example 33e]
criterion met
CC(C)CNC(=O)Nc1ccc(-c2nc(CS(C)(=O)=O)cc(N3CCOC[C@@H]3C)n2)cc1 [Example 8f]
criterion met
Cc1oncc1NC(=O)Nc1ccc(-c2nc(CS(C)(=O)=O)cc(N3CCOC[C@@H]3C)n2)cc1 [Example 22e]
criterion met
C[C@H]1COCCN1c1cc(C(C)(C)O)nc(-c2ccc(NC(=O)NCc3cnn(C)c3)cc2)n1 [Example 38]
criterion not met
C[C@H]1COCCN1c1cc(C(C)(C)S(C)(=O)=O)nc(-c2cnc(NC(=O)NCc3cnn(C)c3)nc2)n1 [Example 24z]
criterion met
CS(=O)(=O)Cc1cc(N2CCOCC2)nc(-c2ccc(NC(=O)Nc3ccc(C(F)(F)F)cc3)cc2)n1 [Example 7c]
criterion not met
COc1cc(-c2nc(CS(C)(=O)=O)cc(N3CCOC[C@@H]3C)n2)ccc1NC(=O)Nc1ccc(F)cc1 [Example 1h]
criterion not met
CNC(=O)Nc1ccn(-c2nc(CS(C)(=O)=O)cc(N3CCOC[C@@H]3C)n2)n1 [Example 24k]
criterion met
CCNC(=O)Nc1ccc(-c2nc(CS(=O)(=O)c3ccccn3)cc(N3CCOC[C@@H]3C)n2)cc1 [Example 71]
criterion met
CCN(C)C(=O)Nc1ccc(-c2nc(CS(C)(=O)=O)cc(N3CCOCC3)n2)cc1 [Example 45l]
criterion not met
CS(=O)(=O)Cc1cc(N2CCOCC2)nc(-c2ccc(NC(=O)N3CCC(S(C)(=O)=O)C3)cc2)n1 (stereo not drawn) [Example 45n]
criterion met
C[C@H]1COCCN1c1cc(CS(C)(=O)=O)nc(-c2ccc(NC(=O)N3CCCC3)cc2)n1 [Example 35c]
criterion not met
